# tgt: human adrenergic β2 receptor (Homo sapiens)
# Construct: purchased Perkin Elmer; host or cells: Sf9 cells
# Sequence (P07550 whole entry): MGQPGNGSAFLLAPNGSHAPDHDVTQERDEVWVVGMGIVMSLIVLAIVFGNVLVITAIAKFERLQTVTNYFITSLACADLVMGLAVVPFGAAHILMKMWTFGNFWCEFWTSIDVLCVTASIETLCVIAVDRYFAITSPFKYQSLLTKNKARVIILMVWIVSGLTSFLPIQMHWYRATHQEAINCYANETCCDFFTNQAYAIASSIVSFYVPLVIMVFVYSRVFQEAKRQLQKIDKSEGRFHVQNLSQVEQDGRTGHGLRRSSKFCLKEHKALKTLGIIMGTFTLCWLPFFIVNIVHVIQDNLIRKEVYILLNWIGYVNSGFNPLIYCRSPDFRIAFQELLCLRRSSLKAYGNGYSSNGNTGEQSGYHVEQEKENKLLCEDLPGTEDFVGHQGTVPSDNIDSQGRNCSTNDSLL
# assay-name: Human adrenergic β2 receptor binding assay (3H-CGP12177, Sf9 membranes)
# setup-conditions: membranes from Sf9 cells, 0.14 nM 3H-CGP12177, 60 minutes at room temperature
Give IC50 for every item shown.
Number only, in nM; omit the unit.

**Query** // query IC50 value for entry COc1ccccc1CNC(=O)Nc1cccc(CCNCC(O)c2ccc(O)c3[nH]c(=O)ccc23)c1 (stereo not shown)
**Result** 5.6

**Query** // query IC50 value for entry `O=C(Nc1ccc(CCNC[C@H](O)c2ccc(O)c3[nH]c(=O)ccc23)cc1)NC(c1ccccc1)c1ccccc1`
**Result** 4.5

**Query** // query IC50 value for entry `O=C(Nc1cccc(CCNC[C@H](O)c2ccc(O)c3[nH]c(=O)ccc23)c1)NC(c1ccccc1)c1ccccc1`
**Result** 5.3

**Query** // query IC50 value for entry O=C(NCCCCc1ccccc1)Nc1cccc(CCNCC(O)c2ccc(O)c3[nH]c(=O)ccc23)c1 (stereo not shown)
**Result** 2.9

**Query** // query IC50 value for entry O=C(NCC12CC3CC(CC(C3)C1)C2)Nc1cccc(CCNCC(O)c2ccc(O)c3[nH]c(=O)ccc23)c1 (stereo not shown)
**Result** 5.9

**Query** // query IC50 value for entry O=C(Nc1cccc(CCNCC(O)c2ccc(O)c3[nH]c(=O)ccc23)c1)NC12CC3CC(CC(C3)C1)C2 (stereo not shown)
**Result** 10

**Query** // query IC50 value for entry CC(Cc1cccc(NC(=O)NCc2ccccc2)c1)NCC(O)c1ccc(O)c2[nH]c(=O)ccc12 (stereo not shown)
**Result** 12
